System: exendin-4 degradation in rat liver homogenate
Assay: Inhibition of exendin-4 metabolism by protease inhibitors in rat liver homogenate
Format: biochemical
assay.endpoint: percentage inhibition of exendin-4 degradation, liver (%)
Give the value in % but do not write % after it.

Qu. For the compound shown here, CC(C)C[C@H](NC(=O)[C@@H](O)[C@H](N)Cc1ccccc1)C(=O)O , give the reported percentage inhibition of exendin-4 degradation, liver.
Ans. 48

Qu. Next compound up: CC(C)C[C@@H](N)[C@H](O)C(=O)N[C@H](C(=O)N[C@H](C(=O)N[C@@H](CC(=O)O)C(=O)O)C(C)C)C(C)C
Ans. 13.2

Qu. Next compound up: O=S(=O)(F)Cc1ccccc1 [PMSF, phenylmethylsulfonyl fluoride]
Ans. 65

====

Tested on: exendin-4 degradation in rat liver homogenate
Assay: Inhibition of exendin-4 metabolism by protease inhibitors in rat liver homogenate
Format: biochemical
assay.endpoint: percentage inhibition of exendin-4 degradation, liver

| molecule | recorded.value |
| --- | --- |
| C[C@H](CS)C(=O)N1CCC[C@H]1C(=O)O | not inhibited |
| CCN1C(=O)C=CC1=O [NEM, N-ethylmaleimide] | not inhibited |
| c1cnc2c(c1)ccc1cccnc12 | > 77% |
